# Test system: CCRIS mutagenicity, Ames/micronucleus/aberration tests
# Assay text: CCRIS mutagenicity studies
# Measurement parameters: Test System: AMES SALMONELLA TYPHIMURIUM; Strain/Indicator: TA100; Metabolic Activation: RAT, LIVER, S-9, AROCLOR 1254; Method: STANDARD PLATE
Calls of active or inactive are those of the source. The rule behind the calls is not given here.
Bench note: report the call from active, inactive

| Molecule | Subject of test | Class assignment |
| --- | --- | --- |
| O=C1C=CC(=O)CC(=O)C1 | CCRIS mutagenicity, Ames/micronucleus/aberration tests | inactive |
| Nc1ccc2ccccc2c1 | CCRIS mutagenicity, Ames/micronucleus/aberration tests | active |
| Nc1ccc2ccccc2c1N=Nc1ccccc1 | CCRIS mutagenicity, Ames/micronucleus/aberration tests | inactive |
| Cc1cc(O)cc2oc(=O)c3c(O)cc(O)cc3c12 | CCRIS mutagenicity, Ames/micronucleus/aberration tests | inactive |
| Cc1ccccc1NO | CCRIS mutagenicity, Ames/micronucleus/aberration tests | active |

Prompt: Short answer needed: outcome of this test for "C=C(C)C(C)=O" ?
Completion: inactive

Prompt: Short answer needed: outcome of this test for O=NN1C(C(=O)O)CSC1C(O)C(O)C(O)C(O)CO (configuration not stated) ?
Completion: inactive

---

# Test system: CCRIS mutagenicity, Ames/micronucleus/aberration tests
# Assay text: CCRIS mutagenicity studies
# Measurement parameters: Test System: AMES SALMONELLA TYPHIMURIUM; Strain/Indicator: TA98; Metabolic Activation: NONE; Method: STANDARD PLATE
Active and inactive are the calls of the source. How the calls were made is not given here.
Bench note: report the call from YES (active), NO (inactive)

Solved entries:
| Compound | Class assignment |
| --- | --- |
| O=NN(CC(=O)O)CC1(O)OCC(O)C(O)C1O (stereo unspecified) | NO |
| Nc1ccc2ccccc2c1 | NO |
| ClCBr | YES |
| Cn1c([N+](=O)[O-])cnc1-c1nnc(N)s1 | YES |

Prompt: Short answer needed: outcome of this test for "O=C(n1ccnc1)n1ccnc1" ?
Completion: NO

Prompt: Short answer needed: outcome of this test for "COc1ccc(-c2nc(-c3ccccc3)c(-c3ccccc3)[nH]2)cc1OC" ?
Completion: YES

Prompt: Short answer needed: outcome of this test for "Cn1c2ccccc2c2ccc([N+](=O)[O-])cc21" ?
Completion: YES

Prompt: Short answer needed: outcome of this test for "O=C1NC(=O)C(c2ccccc2)(c2ccccc2)N1" ?
Completion: NO

Prompt: Short answer needed: outcome of this test for CCC(CCOCn1cc[n+](C)c1/C=N/O)[N+](=O)[O-] (stereo unspecified) ?
Completion: NO

---

# Test system: CCRIS mutagenicity, Ames/micronucleus/aberration tests
# Assay text: CCRIS mutagenicity studies
# Measurement parameters: Test System: AMES SALMONELLA TYPHIMURIUM; Strain/Indicator: TA100; Metabolic Activation: RAT, LIVER, S-9, AROCLOR 1254 (10%); Method: PREINCUBATION
Active and inactive are the calls of the source. How the calls were made is not given here.
Bench note: report the call from active, inactive

Solved entries:
| Smiles string | Class assignment |
| --- | --- |
| Nc1ccc(N)c2ccccc12 | inactive |
| NS(=O)(=O)c1cc(C(=O)O)c(NCc2ccco2)cc1Cl | inactive |
| Nc1c(Cl)cc(Cl)cc1Cl | inactive |

Prompt: Short answer needed: outcome of this test for "c1cnc2c(c1)ccc1cccnc12" ?
Completion: inactive

Prompt: Short answer needed: outcome of this test for "NC(=O)N/N=C/c1ccc([N+](=O)[O-])o1" ?
Completion: active

Prompt: Short answer needed: outcome of this test for "O=[N+]([O-])c1ccccc1Nc1ccccc1" ?
Completion: inactive

Prompt: Short answer needed: outcome of this test for "CC(C)(c1cc(Br)c(O)c(Br)c1)c1cc(Br)c(O)c(Br)c1" ?
Completion: inactive

Prompt: Short answer needed: outcome of this test for "Cc1ccc(NC(N)=O)cc1" ?
Completion: inactive

Prompt: Short answer needed: outcome of this test for "CC(=O)N[C@@H](CS/C(Cl)=C(\Cl)C(Cl)=C(Cl)Cl)C(=O)O" ?
Completion: active

Prompt: Short answer needed: outcome of this test for "C=CC(=O)OCCCCCCOC(=O)C=C" ?
Completion: inactive

Prompt: Short answer needed: outcome of this test for "CCCCOCCOCCSC#N" ?
Completion: inactive

Prompt: Short answer needed: outcome of this test for "CCCCCN" ?
Completion: inactive

Prompt: Short answer needed: outcome of this test for "COc1ccc(C(=O)Nc2ccccc2)cc1[N+](=O)[O-]" ?
Completion: active

Prompt: Short answer needed: outcome of this test for "COc1c(C(C)(C)C)cc([N+](=O)[O-])c(C)c1[N+](=O)[O-]" ?
Completion: inactive

Prompt: Short answer needed: outcome of this test for "CC(=O)CC(C)C" ?
Completion: inactive

Prompt: Short answer needed: outcome of this test for "CN(C)/N=N/c1nc[nH]c1C(N)=O" ?
Completion: active

---

# Tested on: CCRIS mutagenicity, Ames/micronucleus/aberration tests
# Assay text: CCRIS mutagenicity studies
# Measurement parameters: Test System: AMES SALMONELLA TYPHIMURIUM; Strain/Indicator: TA100; Metabolic Activation: NONE; Method: PREINCUBATION
# From the text: The CCRIS database contains chemical records with carcinogenicity, mutagenicity, tumor promotion, and tumor inhibition test results. It was developed by the National Cancer Institute (NCI). Data are derived from studies cited in primary journals, current awareness tools, NCI reports, and other sources. Test results have been reviewed by experts in carcinogenesis and mutagenesis. CCRIS provides historical information from the years 1985 - 2011. It is no longer updated. […]
Activity calls are given as the source filed them. No rule for the calls is given here.
Bench note: report the call from active, inactive

Solved entries:
| Compound | Class assignment |
| --- | --- |
| CC1CCCC1 | inactive |
| ClCc1ccc(Cl)cc1 | inactive |
| Cc1cncc(C)n1 | inactive |

Consider the record given below.
Prompt: Short answer needed: outcome of this test for "Cn1cnc2c3cccnc3ccc21" ?
Completion: active

---

# Tested on: CCRIS mutagenicity, Ames/micronucleus/aberration tests
# Assay text: CCRIS mutagenicity studies
# Measurement parameters: Test System: AMES SALMONELLA TYPHIMURIUM; Strain/Indicator: TA1535; Metabolic Activation: RAT, LIVER, S-9, AROCLOR 1254; Method: STANDARD PLATE
Active and inactive are the calls of the source. The rule behind the calls is not given here.
Bench note: report the call from active, inactive

Solved entries:
| Molecule | Subject of test | Class assignment |
| --- | --- | --- |
| Nc1ccc2ccccc2c1 | CCRIS mutagenicity, Ames/micronucleus/aberration tests | active |
| NCCNCCNCCN | CCRIS mutagenicity, Ames/micronucleus/aberration tests | active |
| Cc1cc(N)cc(C)c1N | CCRIS mutagenicity, Ames/micronucleus/aberration tests | inactive |
| Nc1ncnc2c1ncn2[C@H]1CC[C@@H](CO)O1 | CCRIS mutagenicity, Ames/micronucleus/aberration tests | inactive |
| O=[N+]([O-])C1=Cc2c3c1cccc3cc1ccc3ccccc3c21 | CCRIS mutagenicity, Ames/micronucleus/aberration tests | inactive |

Prompt: Short answer needed: outcome of this test for O=NN(CC(=O)O)CC1(O)OCC(O)C(O)C1O (stereo not given) ?
Completion: inactive

Prompt: Short answer needed: outcome of this test for "Nc1cccc2c(N)cccc12" ?
Completion: inactive

Prompt: Short answer needed: outcome of this test for "CC(C)C[C@H](NC(=O)COc1cc(Cl)c(Cl)cc1Cl)C(=O)O" ?
Completion: inactive

Prompt: Short answer needed: outcome of this test for "S=c1nc[nH]c2nc[nH]c12" ?
Completion: active

Prompt: Short answer needed: outcome of this test for "OCCNc1ccc(N=Nc2ccc(N(CCO)CCO)cc2)cc1" ?
Completion: inactive

---

# Tested on: CCRIS mutagenicity, Ames/micronucleus/aberration tests
# Assay text: CCRIS mutagenicity studies
# Measurement parameters: Test System: AMES SALMONELLA TYPHIMURIUM; Strain/Indicator: TA1537; Metabolic Activation: NONE; Method: STANDARD PLATE
The source made the active and inactive calls. How the calls were made is not given here.
Bench note: report the call from active, inactive

Solved entries:
| Compound | Subject of test | Class assignment |
| --- | --- | --- |
| CN(C)CCNC(=O)c1cccc2c(=O)c3ccccc3sc12 | CCRIS mutagenicity, Ames/micronucleus/aberration tests | active |
| O=C1CCC2(O)c3c(ccc(O)c31)-c1ccc(O)c3c1C2C1OC1C3=O (centres undefined) | CCRIS mutagenicity, Ames/micronucleus/aberration tests | active |
| COc1cc(N)c(C)cc1N | CCRIS mutagenicity, Ames/micronucleus/aberration tests | inactive |
| O=C(CCBr)N1CCN(C(=O)CCBr)CC1 | CCRIS mutagenicity, Ames/micronucleus/aberration tests | inactive |

Prompt: Short answer needed: outcome of this test for "C=C(C)C(C)=O" ?
Completion: inactive

Prompt: Short answer needed: outcome of this test for "CCN(CCCl)CCCNc1c2ccc(Cl)cc2nc2ccc(OC)cc12" ?
Completion: active

Prompt: Short answer needed: outcome of this test for "O=C1c2c(O)ccc([N+](=O)[O-])c2C(=O)c2c([N+](=O)[O-])ccc(O)c21" ?
Completion: active

Attribution: PubChem BioAssay AID1259407
